- PROCEDURE TEXT: Henry solubility constant Hcp at 293 K (mol/(m3 Pa))
- EXPERIMENTAL PARAMETERS: reference: Murphy et al. (1987)
RECORDED METRIC: Henry solubility constant Hcp at 293 K
Please reply with the value in numeric form only.

query: Kindly indicate its recorded Henry solubility constant Hcp at 293 K. Item: Clc1cc(Cl)c(Cl)c(-c2c(Cl)ccc(Cl)c2Cl)c1
result: 0.07

query: Kindly indicate its recorded Henry solubility constant Hcp at 293 K. Item: Clc1cccc(-c2cc(Cl)ccc2Cl)c1
result: 0.029

query: Kindly indicate its recorded Henry solubility constant Hcp at 293 K. Item: Clc1ccc(-c2cc(Cl)ccc2Cl)cc1
result: 0.037

query: Kindly indicate its recorded Henry solubility constant Hcp at 293 K. Item: Clc1ccc(Cl)c(-c2c(Cl)ccc(Cl)c2Cl)c1
result: 0.05
